# SYSTEM: CYP2B6 (Homo sapiens, UniProt P20813)
# Sequence (P20813 whole entry): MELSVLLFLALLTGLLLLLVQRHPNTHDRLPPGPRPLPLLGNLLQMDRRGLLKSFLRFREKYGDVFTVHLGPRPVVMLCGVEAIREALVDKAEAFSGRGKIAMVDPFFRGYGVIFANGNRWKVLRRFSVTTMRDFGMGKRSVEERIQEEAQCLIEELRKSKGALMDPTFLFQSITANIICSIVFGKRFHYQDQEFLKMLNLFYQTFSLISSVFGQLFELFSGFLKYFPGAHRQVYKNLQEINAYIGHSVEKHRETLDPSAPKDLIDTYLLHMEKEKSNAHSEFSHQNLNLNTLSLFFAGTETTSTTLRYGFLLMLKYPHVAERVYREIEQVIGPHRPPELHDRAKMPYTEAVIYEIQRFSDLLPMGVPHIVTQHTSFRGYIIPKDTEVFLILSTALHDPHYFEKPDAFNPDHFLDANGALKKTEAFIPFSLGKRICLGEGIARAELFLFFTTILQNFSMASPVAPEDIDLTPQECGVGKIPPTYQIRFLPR
# ASSAY_PROTOCOL: Inhibition of CYP2B6 (unknown origin) at 10 uM
# Type: ADME
# key: entry, value: inhibition at 10 µM

| MOLECULE_SMILES | SYSTEM | EXPERIMENTAL_ENDPOINT | ENDPOINT_RESULT |
| --- | --- | --- | --- |
| CC12CCCC(C(=O)Nc3nc4ccc(OC(F)(F)F)cc4s3)(CCC1)C2 | CYP2B6 (Homo sapiens, UniProt P20813) | inhibition at 10 µM | > 50% |

Inquiry: // fetch inhibition at 10 µM for CC12CCCC(C(=O)Nc3nc4cc(Cl)cc(Cl)c4s3)(CCC1)C2 ; system: CYP2B6 (Homo sapiens, UniProt P20813)
Reply text: > 50%

* * *

# SYSTEM: Cytochrome P450 2B6 (Homo sapiens, UniProt P20813)
# Sequence (P20813 whole entry): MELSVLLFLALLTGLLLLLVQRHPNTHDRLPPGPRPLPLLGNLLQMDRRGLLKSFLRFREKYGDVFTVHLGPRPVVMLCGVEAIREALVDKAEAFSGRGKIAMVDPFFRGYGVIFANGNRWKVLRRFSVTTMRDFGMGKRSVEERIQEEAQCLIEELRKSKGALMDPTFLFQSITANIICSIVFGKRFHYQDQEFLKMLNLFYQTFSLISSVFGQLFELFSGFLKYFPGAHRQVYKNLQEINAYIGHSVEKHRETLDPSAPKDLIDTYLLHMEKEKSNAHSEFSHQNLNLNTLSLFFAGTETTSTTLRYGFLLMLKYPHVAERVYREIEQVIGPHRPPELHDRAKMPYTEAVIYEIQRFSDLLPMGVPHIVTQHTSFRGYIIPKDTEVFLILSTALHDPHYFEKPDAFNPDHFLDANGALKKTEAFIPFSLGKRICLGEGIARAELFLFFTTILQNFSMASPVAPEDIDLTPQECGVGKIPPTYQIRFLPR
# ASSAY_PROTOCOL: Inhibition of CYP2B6 (unknown origin)
# Assay type: ADME
EXPERIMENTAL_ENDPOINT: pIC50
The read-out pIC50 is expressed as -log10 of concentration in moles per litre.

| COMPOUND | pIC50 |
| --- | --- |
| CC1CC(C(=O)Nc2nc3ccc(Br)cc3s2)CC(C)(C)C1 (centres undefined) | 4.89 |

Next item in the queue.
Inquiry: Please report pIC50 with Cytochrome P450 2B6 (Homo sapiens, UniProt P20813) for item CC1CC(C(=O)Nc2nc3ccc(Cl)cc3s2)CC(C)(C)C1 (centres undefined) .
Reply text: 4.83
